Data origin: patent US6352958B1

I'd appreciate it if you could supply PREEMERGENCE HERBICIDAL ACTIVITY (% CONTROL) ALOMY values for the items below.
System: blackgrass (Aloepecurus myosuroides)
Assay: Preemergence herbicidal activity, blackgrass
Assay type: in vivo
Conditions: Rate of Application 0.3 Kg/Ha, examined after 12-17 days
Protocol: The benzofused heterocyclic compounds of this invention were tested for pre- and postemergence herbicidal activity using a variety of crops and weeds. […] The preemergence flats were initially subjected to a light water spray. […] After 12-17 days the plants were examined and the phytotoxicity data were recorded. […]
Numbers only, in %.

These solved cases illustrate the format of a correct answer.
COMPOUND	NUMBER
CC(F)c1cc2c(Cl)cc(F)c(-n3c(=O)cc(C(F)(F)F)n(C)c3=O)c2o1 (stereo not drawn)	80
Cn1c(C(F)(F)F)cc(=O)n(-c2c(F)cc(Cl)c3nc(CCc4ccccc4)[nH]c23)c1=O	80
Cn1c(C(F)(F)F)cc(=O)n(-c2c(F)cc(Cl)c3cc(CCF)oc23)c1=O	100
Cn1c(C(F)(F)F)cc(=O)n(-c2ccc(Cl)c3cc(C(N)=O)oc23)c1=O	70

I need PREEMERGENCE HERBICIDAL ACTIVITY (% CONTROL) ALOMY for every entry listed below, if you could help.
1. CC(OC(=O)NCc1ccccc1)c1cc2c(Cl)cc(F)c(-n3c(=O)cc(C(F)(F)F)n(C)c3=O)c2o1 (stereo not drawn)
2. Cn1c(C(F)(F)F)cc(=O)n(-c2ccc(Cl)c3cc(NC(=O)OC(C)(C)C)oc23)c1=O
3. Cc1nc2c(-n3c(=O)cc(C(F)(F)F)n(N)c3=O)c(F)cc(Cl)c2o1

(A)
1: 60; 2: 70; 3: 100

---

I'd be grateful if you could share measured Postemergence herbicidal activity (% control) SOY for these entries.
system: soybean (Glycine max var. Winchester); assay: Postemergence herbicidal activity, soybean; format: in vivo; conditions: rate of application 0.3 Kg/Ha, rated after 12-17 days

Parameters: items (list). Returns: Postemergence herbicidal activity (% control) SOY for each item.
1. Cn1c(C(F)(F)F)cc(=O)n(-c2ccc(Cl)c3cc(C(Br)Br)oc23)c1=O
2. Cn1c(C(F)(F)F)cc(=O)n(-c2c(F)cc(Cl)c3[nH]c(C4CCCCC4)nc23)c1=O

(A)
1. 90%
2. 100%

Take each entry in turn and give its Postemergence herbicidal activity (% control) SOY.
1. Cn1c(C(F)(F)F)cc(=O)n(-c2c(F)cc(Cl)c3cc(CCC(=O)O)oc23)c1=O
2. CC(=O)OC(C)(C)c1cc2c(Cl)cc(F)c(-n3c(=O)cc(C(F)(F)F)n(C)c3=O)c2o1
3. Cn1c(C(F)(F)F)cc(=O)n(-c2c(F)cc(Cl)c3nc(-c4ccccc4)[nH]c23)c1=O
4. Cn1c(C(F)(F)F)cc(=O)n(-c2c(F)cc(Br)c3oc(COc4ccc(Cl)cc4)nc23)c1=O
5. Cc1nc2c(-n3c(=O)cc(C(F)(F)F)n(C)c3=O)c(F)cc(Br)c2o1
6. Cc1nc2c(-n3c(=O)cc(C(F)(F)F)n(N)c3=O)c(F)cc(Cl)c2o1

(A)
["95%", "95%", "95%", "80%", "95%", "100%"]

(Q) Any idea what Postemergence herbicidal activity (% control) SOY was measured for CC(Cl)c1cc2c(Cl)cc(F)c(-n3c(=O)cc(C(F)(F)F)n(C)c3=O)c2o1 (stereo not drawn) ?
(A) 100%
